Can you tell me IC50 growth inhibition for the items I'm about to list?
System: Saccharomyces cerevisiae ABC16-Green Monster
CONDITION: 18 h; 30 °C; YPD

## Task Provide the reported IC50 growth inhibition (system: Saccharomyces cerevisiae ABC16-Green Monster) for O=C(Nc1nc(-c2ccccn2)cs1)c1ccccc1Br
## Result 8.35 µM

## Task Provide the reported IC50 growth inhibition (system: Saccharomyces cerevisiae ABC16-Green Monster) for COc1ccccc1NC(=O)c1ccc(NC(=O)Cn2ncc(Cl)c(Cl)c2=O)cc1
## Result 0.238 µM

## Task Provide the reported IC50 growth inhibition (system: Saccharomyces cerevisiae ABC16-Green Monster) for Cc1ccc(Nc2nc(N)nc(CN(C)Cc3nc(=O)c4ccccc4[nH]3)n2)cc1
## Result 32.3 µM

## Task Provide the reported IC50 growth inhibition (system: Saccharomyces cerevisiae ABC16-Green Monster) for CC(C(=O)O)c1ccc2c(c1)[nH]c1ccc(Cl)cc12 (centres undefined) [Carprofen]
## Result > 75 µM

## Task Provide the reported IC50 growth inhibition (system: Saccharomyces cerevisiae ABC16-Green Monster) for O=C(Nc1nnc(-c2ccc(Cl)cc2)o1)c1cccc(C(F)(F)F)c1
## Result 71.2 µM

## Task Provide the reported IC50 growth inhibition (system: Saccharomyces cerevisiae ABC16-Green Monster) for C[C@]1(O)C[C@@H](c2nc(-c3ccc4ccc(-c5ccccc5)nc4c3)c3c(N)nccn32)C1 [Linsitinib]
## Result 16 µM

## Task Provide the reported IC50 growth inhibition (system: Saccharomyces cerevisiae ABC16-Green Monster) for CCOc1cccc2sc(N(Cc3cccnc3)C(=O)C3CCCCC3)nc12
## Result 25.7 µM

## Task Provide the reported IC50 growth inhibition (system: Saccharomyces cerevisiae ABC16-Green Monster) for COc1cc(N2CCC(N3CCN(C)CC3)CC2)ccc1Nc1ncc(Cl)c(Nc2ccccc2P(C)(C)=O)n1 [Brigatinib]
## Result > 75 µM

## Task Provide the reported IC50 growth inhibition (system: Saccharomyces cerevisiae ABC16-Green Monster) for CCC(=O)NC(c1ccccc1Cl)c1cc(Cl)c2cccnc2c1O (centres undefined) [GNF-Pf-5038]
## Result 6.51 µM

----------
Can you tell me IC50 growth inhibition for the items I'm about to list?
Test system: Saccharomyces cerevisiae ABC16-Green Monster
CONDITION: 18 h; 30 °C; YPD
Only the number, expressed in µM, is required.

## Task Look up and state reported IC50 growth inhibition for Clc1cccc(Nc2ncc(-c3ccc4c(c3)OCCCO4)s2)c1
## Result 15.4

## Task Look up and state reported IC50 growth inhibition for CCCCCCC(O)(c1ccc(F)cc1)C(CN1CCOCC1)c1ccccc1 (centres undefined)
## Result 17.3

## Task Look up and state reported IC50 growth inhibition for Cc1cc(Nc2cccc(F)c2)nc(NCc2ccccc2)n1
## Result 21.9

## Task Look up and state reported IC50 growth inhibition for CCCc1cc(N2CCN(C)CC2)n2ncc(-c3ccccc3)c2n1
## Result 47

## Task Look up and state reported IC50 growth inhibition for CC(C)(C)C1CCc2[nH]c3ccccc3c(=O)c2C1 (centres undefined) [GNF-Pf-3815]
## Result 60.3

## Task Look up and state reported IC50 growth inhibition for CCC(C)n1ncn(-c2ccc(N3CCN(c4ccc(OCC5COC(Cn6cncn6)(c6ccc(Cl)cc6Cl)O5)cc4)CC3)cc2)c1=O (centres undefined) [Itraconazole]
## Result 7.53

## Task Look up and state reported IC50 growth inhibition for COc1ccc(C2c3ccc4ccccc4c3Oc3ncn(CCCN(C)C)c(=N)c32)cc1 (centres undefined)
## Result 28.9

----------
Can you tell me IC50 growth inhibition for the items I'm about to list?
System: Saccharomyces cerevisiae ABC16-Green Monster
CONDITION: 18 h; 30 °C; YPD
Only the number, expressed in µM, is required.

## Task Look up and state reported IC50 growth inhibition for Cc1cc(C)n(-c2ccc(CN3c4ccc(S(N)(=O)=O)cc4CC3C)cc2)n1 (centres undefined)
## Result 129

## Task Look up and state reported IC50 growth inhibition for CC1CCCC=CC2CC(O)CC2C(O)C=CC(=O)O1 (centres undefined)
## Result 31.9

## Task Look up and state reported IC50 growth inhibition for CC(C)(C)C(O)C(Oc1ccc(-c2ccccc2)cc1)n1cncn1 (centres undefined)
## Result 70

## Task Look up and state reported IC50 growth inhibition for CC(C)Cn1c2c(c(O)c(C(=O)Nc3ncccc3O)c1=O)CCCC2
## Result 46.9

## Task Look up and state reported IC50 growth inhibition for CCCCCC(=O)N[C@H](C(=O)N[C@@H](CCS(C)(=O)=O)C(=O)N[C@@H](CC(C)C)C(=O)[C@@]1(C)CO1)C(C)C
## Result 24.8

## Task Look up and state reported IC50 growth inhibition for CCc1c(C(=O)Nc2nc(C)cs2)cnn1-c1cccc(Cl)c1
## Result 30.5

## Task Look up and state reported IC50 growth inhibition for O=C(Nc1cccc(C(F)(F)F)c1)c1cc(Cl)ccc1O
## Result 4.18

## Task Look up and state reported IC50 growth inhibition for COc1ccccc1N=C1C(=O)c2ccccc2C(O)=C1N1CCCCC1
## Result 7.84

----------
Test system: Saccharomyces cerevisiae ABC16-Green Monster
CONDITION: 18 h; 30 °C; YPD
Can you tell me log10 of IC50 growth inhibition for the items I'm about to list?
Heads up, the numbers here are log10 of IC50 growth inhibition in µM units.

## Task Look up and state reported log10 of IC50 growth inhibition for Cc1ccc2nc(-c3ccc(N(C)C)cc3)[nH]c2c1
## Result 1.07

## Task Look up and state reported log10 of IC50 growth inhibition for Cc1ccc(Cc2c(C)nn(-c3nc4ccccc4[nH]3)c2O)cc1
## Result 0.73

## Task Look up and state reported log10 of IC50 growth inhibition for NC(=O)[C@@H](CC1CC1)[C@@H](CCC(F)(F)F)C(=O)N[C@H]1N=C(c2ccccc2)c2cccc(F)c2NC1=O
## Result 0.31

## Task Look up and state reported log10 of IC50 growth inhibition for CC(C)(C)c1ccc2c(c1)CN(Cc1ccc(Cl)cc1)CO2
## Result 1.16

## Task Look up and state reported log10 of IC50 growth inhibition for Cc1[nH]c2ccccc2c1C(c1cccs1)N1CCN(C)CC1 (stereo not given)
## Result 1.56

## Task Look up and state reported log10 of IC50 growth inhibition for COC(=O)C1=C(C)NC(C)=C(C(=O)OCC(C)C)C1c1ccccc1[N+](=O)[O-] (stereo not given)
## Result 1.61

## Task Look up and state reported log10 of IC50 growth inhibition for N#CC(C#N)=NNc1cc(Cl)cc(Cl)c1
## Result 1.31

## Task Look up and state reported log10 of IC50 growth inhibition for CCCCc1ccc(C(=O)Nc2nccc3ccccc23)nc1
## Result 1.74

----------
Can you tell me IC50 growth inhibition for the items I'm about to list?
System: Saccharomyces cerevisiae ABC16-Green Monster
CONDITION: 18 h; 30 °C; YPD
Only the number, expressed in µM, is required.

## Task Provide the reported IC50 growth inhibition (system: Saccharomyces cerevisiae ABC16-Green Monster) for N=C(N)c1ccc(OCCCCCOc2ccc(C(=N)N)cc2)cc1
## Result 83.8

## Task Provide the reported IC50 growth inhibition (system: Saccharomyces cerevisiae ABC16-Green Monster) for CCC(=C(CC)c1ccc(O)cc1)c1ccc(O)cc1 [Diethylstilbestrol]
## Result 5.86

## Task Provide the reported IC50 growth inhibition (system: Saccharomyces cerevisiae ABC16-Green Monster) for CN(C)c1oc(-c2ccc(Cl)cc2Cl)nc1[P+](c1ccccc1)(c1ccccc1)c1ccccc1 [GNF-Pf-2545]
## Result 4.53

## Task Provide the reported IC50 growth inhibition (system: Saccharomyces cerevisiae ABC16-Green Monster) for NCCN(C(=O)c1ccc(Cl)cc1Cl)c1ccc(OCc2ccc(Cl)cc2)cc1
## Result 10.5

## Task Provide the reported IC50 growth inhibition (system: Saccharomyces cerevisiae ABC16-Green Monster) for CCC(=C(c1ccccc1)c1ccc(OCCN(C)C)cc1)c1ccccc1 [Tamoxifen]
## Result 3.13

## Task Provide the reported IC50 growth inhibition (system: Saccharomyces cerevisiae ABC16-Green Monster) for CC(C)/N=c1\cc2n(-c3ccc(Cl)cc3)c3ccccc3nc-2cc1Nc1ccc(Cl)cc1 [Clofazimine]
## Result 5.81

## Task Provide the reported IC50 growth inhibition (system: Saccharomyces cerevisiae ABC16-Green Monster) for Clc1cccc(C(c2ccc(CN3CCNCC3)cc2)n2ccnc2)c1 (centres undefined)
## Result 28.7

## Task Provide the reported IC50 growth inhibition (system: Saccharomyces cerevisiae ABC16-Green Monster) for Cc1cc(C(=O)NCCc2cccc(F)c2)c(C)n1C(C)C
## Result 20.7

----------
Can you tell me IC50 growth inhibition for the items I'm about to list?
System: Saccharomyces cerevisiae ABC16-Green Monster
CONDITION: 18 h; 30 °C; YPD

## Task Provide the reported IC50 growth inhibition (system: Saccharomyces cerevisiae ABC16-Green Monster) for Cc1ccc2nc3ccccc3c(N3CCN(C(=O)c4ccccc4)CC3)c2c1
## Result 6.15 µM

## Task Provide the reported IC50 growth inhibition (system: Saccharomyces cerevisiae ABC16-Green Monster) for Cn1c(N)c(C(=O)CSc2nnc(-c3ccccc3)c(-c3ccccc3)n2)c(=O)n(C)c1=O
## Result 22.9 µM

## Task Provide the reported IC50 growth inhibition (system: Saccharomyces cerevisiae ABC16-Green Monster) for FC(F)Sc1ccc2nc3ccccc3c(N3CCOCC3)c2c1
## Result 30 µM

## Task Provide the reported IC50 growth inhibition (system: Saccharomyces cerevisiae ABC16-Green Monster) for O=C(Nc1nc(-c2ccccn2)cs1)C1CC1c1ccccc1F (configuration not stated)
## Result 6.32 µM

## Task Provide the reported IC50 growth inhibition (system: Saccharomyces cerevisiae ABC16-Green Monster) for O=C(COc1cccc(F)c1)Nc1nc(-c2ccccn2)cs1
## Result 35.1 µM

## Task Provide the reported IC50 growth inhibition (system: Saccharomyces cerevisiae ABC16-Green Monster) for COc1cccc(-n2nnnc2S(=O)(=O)Cc2ccccc2)c1
## Result 16.1 µM

## Task Provide the reported IC50 growth inhibition (system: Saccharomyces cerevisiae ABC16-Green Monster) for Cc1cccc(-n2ncc3c(=O)[nH]c(-n4nc(C)cc4NC(=O)c4cc5ccccc5o4)nc32)c1
## Result 7.06 µM

## Task Provide the reported IC50 growth inhibition (system: Saccharomyces cerevisiae ABC16-Green Monster) for Nc1ccn(C2OC(CO)C(O)C2(F)F)c(=O)n1 (configuration not stated)
## Result > 75 µM

## Task Provide the reported IC50 growth inhibition (system: Saccharomyces cerevisiae ABC16-Green Monster) for CC1=NN(c2nc3ccccc3s2)C(=O)C1Cc1cccc2ccccc12 (configuration not stated)
## Result 40.7 µM

## Task Provide the reported IC50 growth inhibition (system: Saccharomyces cerevisiae ABC16-Green Monster) for CC[C@@]1(O)C[C@H](O[C@H]2C[C@H](N(C)C)[C@H](O[C@H]3C[C@H](O)[C@H](O[C@H]4CCC(=O)[C@H](C)O4)[C@H](C)O3)[C@H](C)O2)c2c(cc3c(c2O)C(=O)c2c(O)cccc2C3=O)[C@H]1C(=O)OC
## Result 4.79 µM

## Task Provide the reported IC50 growth inhibition (system: Saccharomyces cerevisiae ABC16-Green Monster) for OCCN1CCN(CCCN2c3ccccc3Sc3ccc(C(F)(F)F)cc32)CC1
## Result 30.1 µM

## Task Provide the reported IC50 growth inhibition (system: Saccharomyces cerevisiae ABC16-Green Monster) for Cc1nn(C(C)(C)C)c(C)c1/C=N/OC(=O)Nc1ccc(Cl)cc1
## Result 39.1 µM

## Task Provide the reported IC50 growth inhibition (system: Saccharomyces cerevisiae ABC16-Green Monster) for O=C(O)[C@]1(Cc2cccc(Nc3nccs3)n2)CC[C@@H](Oc2cccc(Cl)c2F)CC1
## Result > 75 µM

## Task Provide the reported IC50 growth inhibition (system: Saccharomyces cerevisiae ABC16-Green Monster) for CCCCCN(C)CCC(O)(P(=O)([O-])O)P(=O)(O)O.[Na+] [Ibandronate]
## Result > 75 µM

## Task Provide the reported IC50 growth inhibition (system: Saccharomyces cerevisiae ABC16-Green Monster) for CCC1(O)C(=O)OCc2c1cc1n(c2=O)Cc2cc3c(CN(C)C)c(O)ccc3nc2-1 (configuration not stated)
## Result > 75 µM

## Task Provide the reported IC50 growth inhibition (system: Saccharomyces cerevisiae ABC16-Green Monster) for CN(C)CCC=C1c2ccccc2CCc2ccccc21
## Result 56.8 µM

## Task Provide the reported IC50 growth inhibition (system: Saccharomyces cerevisiae ABC16-Green Monster) for COC1=C2CC(C)CC(OC)C(O)C(C)C=C(C)C(OC(N)=O)C(OC)C=CC=C(C)C(=O)NC(=CC1=O)C2=O (configuration not stated)
## Result > 75 µM
